Target: E. coli TEM-1 (Class A) (Escherichia coli)
Sequence (P62593 24-286 limits assumed): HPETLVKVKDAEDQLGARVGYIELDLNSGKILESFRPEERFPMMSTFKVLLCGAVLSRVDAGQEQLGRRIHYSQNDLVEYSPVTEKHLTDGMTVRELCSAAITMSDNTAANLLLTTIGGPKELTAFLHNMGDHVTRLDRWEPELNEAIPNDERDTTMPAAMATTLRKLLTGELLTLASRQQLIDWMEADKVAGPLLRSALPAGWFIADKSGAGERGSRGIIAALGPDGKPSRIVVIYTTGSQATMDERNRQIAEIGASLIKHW
Test: β-lactamase inhibition, nitrocefin hydrolysis progress curves
Format: biochemical
Settings: supplement CSV; incubation time not given, values correspond to 60 min
measurement.name: IC50 (µM)
Answer in µM, number only, no unit symbol.

Example results:
CC1=C[C@@H]2CN(C(=O)N2OC(F)(F)C(=O)O)[C@@H]1C(N)=O ... 0.001
CC1=C[C@@H](C(N)=O)N2C[C@@H]1N(O[C@H](F)C(=O)O)C2=O ... 0.003

Shifting focus to the molecule that follows.
Task: Provide IC50 value for the following molecule: CC1=C[C@@H]2CN(C(=O)N2O[C@H](F)C(=O)O)[C@@H]1C(N)=O
Result: 0.001

* * *

Test: 14-day GLP toxicology study, daily oral administration
Conditions: dog, in vivo, dogs
measurement.name: NOAEL at 14 day (mg/kg/day)
Could you give me the number in mg/kg/day? Just the number is fine.

Task: Answer with the recorded NOAEL at 14 day for the molecule listed here: CC1=C[C@@H](C(N)=O)N2C[C@@H]1N(O[C@H](F)C(=O)OC(C)C)C2=O [Compound 23]
Result: 400

* * *

Assay: Stability in intestinal S9 fraction
Assay type: in vitro ADME, rat
Details: 0.8 mg/mL protein, 10 μM, 37 °C
Mark each entry condition met if its Half-life, Rat intestinal S9 sits below 40 min, and condition not met for all others.

Past entries and their recorded results:
CCOC(=O)[C@H](F)ON1C(=O)N2C[C@H]1C(C)=C[C@H]2C(N)=O [Compound 20] ... condition met
CC1=C[C@@H](C(N)=O)N2C[C@@H]1N(O[C@@H](F)C(=O)OC(C)C)C2=O [Compound 21] ... condition not met
CC1=C[C@@H](C(N)=O)N2C[C@@H]1N(O[C@H](F)C(=O)OC(C)C)C2=O [Compound 23] ... condition not met

Task: Consider CCOC(=O)[C@@H](F)ON1C(=O)N2C[C@H]1C(C)=C[C@H]2C(N)=O [Compound 22] . Does its Half-life, Rat intestinal S9 lie strictly below 40 min?
Result: condition not met

* * *

Assay: Stability in intestinal S9 fraction
Format: in vitro ADME, human
Details: 0.8 mg/mL protein, 10 μM, 37 °C
measurement.name: Half-life, Human intestinal S9 (min)
I only need the number, in min, no unit after it.

Task: Please give the documented Half-life, Human intestinal S9 of CC1=C[C@@H](C(N)=O)N2C[C@@H]1N(O[C@H](F)C(=O)OC(C)C)C2=O
Result: 163

Task: Give Half-life, Human intestinal S9 for CCOC(=O)[C@@H](F)ON1C(=O)N2C[C@H]1C(C)=C[C@H]2C(N)=O
Result: 35

Task: Tell us which Half-life, Human intestinal S9 value is on record for CC1=C[C@@H](C(N)=O)N2C[C@@H]1N(O[C@@H](F)C(=O)OC(C)C)C2=O
Result: 36

Task: Identify Half-life, Human intestinal S9 associated with the compound CCOC(=O)[C@H](F)ON1C(=O)N2C[C@H]1C(C)=C[C@H]2C(N)=O
Result: 6.9

Task: Return Half-life, Human intestinal S9 (reported value) for this compound: CCOC(=O)[C@@H](F)ON1C(=O)N2C[C@H]1C=C(C)[C@H]2C(N)=O
Result: 38

* * *

Molecular target: P. aeruginosa AmpC (Class C) (Pseudomonas aeruginosa)
Sequence (P24735 27-397): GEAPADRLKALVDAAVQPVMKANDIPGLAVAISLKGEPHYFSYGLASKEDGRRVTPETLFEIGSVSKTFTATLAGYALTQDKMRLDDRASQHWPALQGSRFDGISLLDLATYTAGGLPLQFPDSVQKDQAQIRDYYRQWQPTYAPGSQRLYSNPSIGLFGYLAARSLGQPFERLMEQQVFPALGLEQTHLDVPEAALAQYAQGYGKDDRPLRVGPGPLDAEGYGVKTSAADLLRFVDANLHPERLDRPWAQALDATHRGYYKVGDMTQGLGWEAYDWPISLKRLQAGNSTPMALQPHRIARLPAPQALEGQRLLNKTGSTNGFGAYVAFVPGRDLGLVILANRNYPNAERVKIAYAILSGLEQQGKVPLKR
Test: β-lactamase inhibition, nitrocefin hydrolysis progress curves
Assay type: biochemical
Details: IC50 10 min, P. aeruginosa AmpC (Class C), 10 min incubation
measurement.name: pIC50
Answer as the number alone; pIC50 is minus log10 of concentration in mol/L.

Task: # assay system P. aeruginosa AmpC (Class C) (Pseudomonas aeruginosa): give pIC50 of CC1=C[C@@H]2CN(C(=O)N2OS(=O)(=O)O)[C@@H]1C(N)=O [Durlobactam, durlobactam]
Result: 8.10

* * *

Experiment: Stability in intestinal S9 fraction
Format: in vitro ADME, human
Conditions: human, intestinal S9 fraction, pH 7.4; species not given in the sentence; read-out: t1/2, stability to intestinal esterases
Description: Liver and intestinal S9 subcellular fractions (Xenotech) from rat and human tissue were diluted to a protein concentration of 0.8 mg/mL in 100 mM potassium phosphate buffer, pH 7.4, and preincubated in a 37 °C water bath for 5 min prior to addition of 10 μM (final) of compound of interest. […] First order degradation half-lives were determined from the slope of the log–linear plots of the depletion data.
measurement.name: half-life at 10 μM

Task: Recall and state the measured half-life at 10 μM for CC1=C[C@@H]2CN(C(=O)N2O[C@H](F)C(=O)OC(C)C)[C@@H]1C(N)=O [Compound 16] .
Result: > 2 h

* * *

Assay: Stability in intestinal S9 fraction
Type: in vitro ADME, human
Settings: human, intestinal S9 fraction, pH 7.4; 0.8 mg/mL protein, 10 μM, 37 °C; read-out: Half-life, Human intestinal S9
measurement.name: half-life at 10 μM (min)
API: value field is a number in min; no unit string.

Task: Given CCOC(=O)[C@H](F)ON1C(=O)N2C[C@H]1C=C(C)[C@H]2C(=O)NCCNS(N)(=O)=O , respond with its half-life at 10 μM.
Result: 22

* * *

Assay: Buffer stability of ester prodrugs
Assay type: physicochemical
Settings: potassium phosphate buffer pH 7.4, 37 °C, 10 μM
Protocol: Buffer stability (potassium phosphate buffer, pH 7.4) was evaluated using the same protocol but without adding the S9 subcellular fractions.
measurement.name: Half-life, pH 7.4 buffer (min)
Number only, in min; omit the unit.

CCOC(=O)[C@@H](F)ON1C(=O)N2C[C@H]1C=C(C)[C@H]2C(N)=O [Compound 15] ... 41
CCOC(=O)[C@H](F)ON1C(=O)N2C[C@H]1C(C)=C[C@H]2C(N)=O [Compound 20] ... 22
CCOC(=O)[C@@H](F)ON1C(=O)N2C[C@H]1C(C)=C[C@H]2C(N)=O [Compound 22] ... 44

Task: Return the recorded Half-life, pH 7.4 buffer value; entry: CC1=C[C@@H](C(N)=O)N2C[C@@H]1N(O[C@H](F)C(=O)OC(C)C)C2=O [Compound 23]
Result: 186

Task: Please look at this compound and report its Half-life, pH 7.4 buffer: CC1=C[C@@H](C(N)=O)N2C[C@@H]1N(O[C@@H](F)C(=O)OC(C)C)C2=O [Compound 21]
Result: 91

* * *

Biological target: UniProt Q6XEC0
Experiment: biochemical
Details: IC50 10 min, 10 min incubation
measurement.name: IC50 (nM)
All answers are understood in nM, so give the number only.

Task: State, in one line, measured IC50 of CC1=C[C@@H]2CN(C(=O)N2OS(=O)(=O)O)[C@@H]1C(N)=O
Result: 24

* * *

Assay: Stability in liver S9 fraction
Format: in vitro ADME, human
Conditions: human, liver S9 fraction, pH 7.4, 0.8 mg/mL protein, 37 °C
measurement.name: half-life at 10 μM (min)
Number in min, nothing else.

Task: Give the measured half-life at 10 μM for CCOC(=O)[C@H](F)ON1C(=O)N2C[C@H]1C=C(C)[C@H]2C(=O)NCCNS(N)(=O)=O [Compound 19]
Result: 9.9

* * *

Assay: Stability in liver S9 fraction
Type: in vitro ADME, rat
Conditions: 0.8 mg/mL protein, 10 μM, 37 °C
measurement.name: Half-life, Rat liver S9 (min)
Your answer is read as min, so omit the unit and give the number.

For orientation, consider the following solved cases.
CC1=C[C@@H](C(N)=O)N2C[C@@H]1N(O[C@@H](F)C(=O)OC(C)C)C2=O [Compound 21] ... 3
CCOC(=O)[C@@H](F)ON1C(=O)N2C[C@H]1C(C)=C[C@H]2C(N)=O [Compound 22] ... 20
CCOC(=O)[C@H](F)ON1C(=O)N2C[C@H]1C(C)=C[C@H]2C(N)=O [Compound 20] ... 2.4
CC1=C[C@@H](C(N)=O)N2C[C@@H]1N(O[C@H](F)C(=O)OC(C)C)C2=O [Compound 23] ... 32

With those in mind, consider the next compound.
Task: Input CCOC(=O)[C@@H](F)ON1C(=O)N2C[C@H]1C=C(C)[C@H]2C(N)=O [Compound 15] , output reported Half-life, Rat liver S9.
Result: 4.4

* * *

As shown below, each of these compounds has a reported logD value.
Test: log D
Format: physicochemical

CC1=C[C@@H]2CN(C(=O)N2OS(=O)(=O)O)[C@@H]1C(N)=O [Durlobactam, durlobactam] ... < 0

Task: Look up and state reported logD for NC(=O)[C@@H]1CC[C@@H]2CN1C(=O)N2OS(=O)(=O)O [Avibactam, avibactam]
Result: < 0

* * *

Molecular target: K. pneumoniae OXA-48 (Class D) (Klebsiella pneumoniae, UniProt Q6XEC0)
Sequence (Q6XEC0 23-265, looked up): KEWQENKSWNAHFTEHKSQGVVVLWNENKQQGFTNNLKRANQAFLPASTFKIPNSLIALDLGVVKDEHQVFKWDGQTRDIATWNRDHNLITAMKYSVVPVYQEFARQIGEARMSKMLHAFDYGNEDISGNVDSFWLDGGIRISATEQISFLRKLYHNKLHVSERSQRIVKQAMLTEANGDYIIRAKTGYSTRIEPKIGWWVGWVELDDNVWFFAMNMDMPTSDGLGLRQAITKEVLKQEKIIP
Test: biochemical
Details: IC50 60 min, 60 min incubation
measurement.name: IC50

Task: Would you please give the reported IC50 of CC1=C[C@@H]2CN(C(=O)N2OS(=O)(=O)O)[C@@H]1C(N)=O with K. pneumoniae OXA-48 (Class D) (Klebsiella pneumoniae, UniProt Q6XEC0)?
Result: 5 nM
